tested on: Fibroblast; test: Multiplex assay against human fibroblast; type: toxicity, cell-based; settings: 12 h, 1 µM, compound concentration 1 uM, replicate 2
I'd appreciate it if you could supply Population Apoptotic (%) values for the items below.
Please give a number only; it is taken to be in %.

Name the recorded Population Apoptotic (%) for C[C@@H]1C[C@H]2[C@@H]3CCC4=CC(=O)C=C[C@]4(C)[C@@]3(F)[C@@H](O)C[C@]2(C)[C@@]1(O)C(=O)CO .
38

Next entry: CCNC1(C(N)=O)CCN(c2ncnc3c2nc(-c2ccccc2Cl)n3-c2ccc(Cl)cc2)CC1
37

# repeat for CN1CCN2c3ncccc3Cc3ccccc3C2C1 (configuration not stated)
33

Ok, now CN(C)CCCc1cc(C(=O)Nc2ccc(-c3ccncc3)cc2)ccc1O.Cl.Cl
44

Entry c1cc(OCCCN2CCCCC2)ccc1CN1CCCCC1 please
26

Repeat with C[C@H](NC(=O)c1c(C(F)F)nn(C)c1Oc1cccc(C(F)(F)F)c1)c1ccc(C(=O)O)cc1
24

CC[C@H]1OC(=O)[C@H](C)[C@@H](O[C@H]2C[C@@](C)(OC)[C@@H](O)[C@H](C)O2)[C@H](C)[C@@H](O[C@@H]2O[C@H](C)C[C@H](N(C)C)[C@H]2O)[C@@]2(C)CC(C)=C(O2)[C@H](C)[C@@H](O)[C@]1(C)O , same question.
46

Numbers sourced from ChEMBL document CHEMBL5058577.
